- Tested on: SK-MEL-2 melanoma
- Protocol: NCI-60 one-dose screen, 48 h
- Settings: 10 µM unless noted
This is part of a sample that, as a whole, favours compounds with a hit. Of some 83,000 tested, about 20% had one in any assay. Activity calls are given as the source filed them. How the source made its calls: active means growth percent below 10; inactive means the rest.
Give one outcome, nothing more. List: t for active, f for inactive

COc1ccc(N=C2NN=C(c3c[nH]c4ccccc34)CS2)cc1OC :: f
CCN1C2CCC1/C(=C\c1ccccc1)C(=O)/C2=C/c1ccccc1 :: f
Cn1cc(-c2csc(-c3cn(C)c4ccccc34)n2)c2cnccc21 :: f
Cc1ccc(C(=O)c2ccc(CC(=O)N/N=C/c3cccc(O)c3O)n2C)cc1 :: f
CN(C)/C(N)=N/N=C(\c1ccccc1)c1ccccn1 :: f
CCOC(=O)c1cn2ncnc(Oc3ccc(NC(=O)NC4CC4)c(Cl)c3)c2c1C :: f
C=C(C)[C@@H]1CC[C@]2(C(=O)N3CCNCC3)CC[C@]3(C)[C@H](CC[C@@H]4[C@@](C)(CCC(=O)N5CCNCC5)[C@H](C(=C)C)CC[C@]43C)[C@@H]12 :: f
O=C1OCC2=C1C(c1ccccc1)c1cc3c(cc1N2CCO)OCCO3 (stereo not given) :: f

Qu. // param item: Cc1[nH]n(-c2cccc(Cl)c2)c(=O)c1/C=C1\C=c2ccccc2=CC1=O ; yields the recorded call
Ans. f

Qu. // param item: COc1ccc(Oc2ccc(/C=C/C(=O)c3cc4ccccc4oc3=O)cc2)cc1 ; yields the recorded call
Ans. f

Qu. // param item: COc1ccc(/C=C/C(c2cc(OC)c(OC)c(OC)c2)n2cncn2)cc1O (stereo not given) ; yields the recorded call
Ans. f

Qu. // param item: COc1ccc(Oc2ccc(/C=C/C(=O)c3ccc(OC)c(OC)c3)cc2)cc1 ; yields the recorded call
Ans. f

Qu. // param item: COc1cc([C@@H](CCO)C[C@H](C)c2ccc3ccccc3c2)cc(OC)c1OC ; yields the recorded call
Ans. f

Qu. // param item: CN(C)c1ccc(C(=S)c2ccc(N(C)C)cc2)cc1 ; yields the recorded call
Ans. f

Qu. // param item: COc1cc2c(cc1OCCCN1CCN(C(=S)SCCC(C#N)(c3ccccc3)c3ccccc3)CC1)N=C[C@@H]1CCCN1C2=O ; yields the recorded call
Ans. t

Qu. // param item: O=C(Nc1cccnc1Nc1ccc(Cl)cc1)c1cn(Cc2cccc(Oc3ccccc3)c2)nn1 ; yields the recorded call
Ans. f

###

- System: RPMI-8226 leukemia
- Protocol: NCI-60 one-dose screen, 48 h
- Settings: 10 µM unless noted
Compounds without any hit were thinned out: in the full panel of roughly 83,000, 20% have a hit. The source made the active and inactive calls. The calls were made as follows: active = growth percent below 10; inactive = the rest.
Give one outcome, nothing more. List: active, inactive

Worked cases, answers included:
O=C(Nc1cc(Cl)ccc1O)c1ccccc1Nc1ccnc(C(F)(F)F)c1 :: active
C=CC(CC(c1ccccc1)(c1ccccc1)c1ccccc1)N(CC)CC (stereo not given) :: inactive
CNCCCNc1nc2ccccc2c2c(=O)c3cc(Cl)ccc3sc12 :: active
CCOC(=O)c1cnn(CC(C)O)c1NC(=O)NCc1cccc(F)c1 (stereo not given) :: inactive
CCOC(=O)c1cn2ncnc(Oc3ccc(NC(=O)NC4CC4)c(Cl)c3)c2c1C :: inactive

Qu. // param item: Nc1c(Cl)cc(/C=C2\C=Cc3ccccc32)cc1Cl ; yields the recorded call
Ans. inactive

Qu. // param item: COc1ccc(C/C(C)=C(\c2ccc(O)cc2)c2ccc(OCCN3CCCCC3)cc2)cc1 ; yields the recorded call
Ans. inactive

Qu. // param item: COc1ccc2cc(-c3nc4ccc(C)cn4c3NCc3ccco3)c(=O)[nH]c2c1 ; yields the recorded call
Ans. inactive

Qu. // param item: c1ccc(-c2nc3ccccc3[nH]2)c(OCCCCCOc2ccccc2-c2nc3ccccc3[nH]2)c1 ; yields the recorded call
Ans. inactive

Qu. // param item: C[C@@H]1CN(c2cnc(C(=O)Nc3cc(F)cc4cccnc34)cn2)C[C@H](C)N1 ; yields the recorded call
Ans. inactive

Qu. // param item: COc1cc(/C=C/C(=O)c2cc(OC)c(OC)c(OC)c2)ccc1Oc1nc2c(c(=O)n(C)c(=O)n2C)n1C ; yields the recorded call
Ans. active

Qu. // param item: N[C@@H]1CCC[C@H]1NCCCCN1C(=O)c2cccc3cc([N+](=O)[O-])cc(c23)C1=O ; yields the recorded call
Ans. inactive

Qu. // param item: C#COc1cccc(Nc2ncnc3cc(NC(=O)[C@H](C)Cl)ccc23)c1 ; yields the recorded call
Ans. inactive

Qu. // param item: CCOC(=O)c1c(C)nc2c(c1N)C(=O)C(=O)N2Cc1ccc(OC)cc1 ; yields the recorded call
Ans. inactive

Qu. // param item: Nc1ccc(-c2ccncc2)cc1NC(=O)N1CCCC1 ; yields the recorded call
Ans. inactive

Qu. // param item: CC(C)Cc1nc(Nc2ccccc2)[nH]c(=O)c1C#N ; yields the recorded call
Ans. inactive

Qu. // param item: COc1ccc(-c2cc(C(=O)N3N=C(c4ccc(N)cc4)CC3c3ccc(Cl)cc3)c3ccccc3n2)cc1 (stereo not given) ; yields the recorded call
Ans. inactive

Qu. // param item: COc1ccc2[nH]cc(-c3nonc3-c3c[nH]c4ccc(Br)cc34)c2c1 ; yields the recorded call
Ans. inactive

Qu. // param item: O=C(Nc1ccc(Oc2cccc(Cl)c2)c(Cl)c1)c1cccnn1 ; yields the recorded call
Ans. inactive

###

- System: OVCAR-4 ovarian
- Protocol: NCI-60 one-dose screen, 48 h (100 = growth as untreated, 0 = no growth, -100 = all killed)
- Settings: 10 µM unless noted
The panel holds about 83,000 compounds, 20% with a hit somewhere; the sample as a whole holds those more often.
Threshold check on growth: at or above 80% gives y, strictly below gives n.

Worked cases, answers included:
Cc1c2ncccc2nc2[nH]c3ccc(OCCN(C)C)cc3c12 :: n
O=C(Nc1cc(Cl)cc(Cl)c1)Oc1c(Cl)c(Cl)c(Cl)c(Cl)c1Cl :: y
C#CCOc1cccc(Nc2ncnc3cc(NC(=O)CCl)ccc23)c1 :: n
Cc1ccc2c(c1)sc1nc(-c3c[nH]c4ccccc34)c(Nc3ccccc3)n12 :: y

Qu. Determine whether measured growth meets or exceeds 80% for CCCC(O)Cn1ncc(C(=O)OCC)c1NC(=O)NCc1cccc(C(F)(F)F)c1 (stereo not drawn)
Ans. y

Qu. Determine whether measured growth meets or exceeds 80% for Cc1nn(-c2ccc([N+](=O)[O-])cc2)c2ncnc(N/N=C/c3ccccc3O)c12
Ans. n

Qu. Determine whether measured growth meets or exceeds 80% for COC(=O)c1nc(-c2ccccc2)oc1S(=O)(=O)N1CCCC(C)C1 (stereo not drawn)
Ans. y

###

- Test system: OVCAR-3 ovarian
- Protocol: NCI-60 one-dose screen, 48 h (100 = growth as untreated, 0 = no growth, -100 = all killed)
- Settings: 10 µM unless noted
The panel holds about 83,000 compounds, 20% with a hit somewhere; the sample as a whole holds those more often.
Each item that follows carries a reported growth.
Record the value in %, omitting the unit from your answer.

COc1ccc2cc(-c3nc4ccc(C)cn4c3NCc3ccco3)c(=O)[nH]c2c1 :: 89.4
N#C/C(=C\c1ccc(-c2cccc(Cl)c2)o1)C(=O)Nc1ncc(Cc2ccc(Cl)cc2)s1 :: 11.3

Note to self: growth recorded for COc1ccc(-c2cc(C(=O)N3N=C(c4ccc(N)cc4)CC3c3ccc(Cl)cc3)c3cc(OC)ccc3n2)cc1 (stereo not given) was 42.7

###

- Test system: HOP-92 NSCLC
- Protocol: NCI-60 one-dose screen, 48 h (100 = growth as untreated, 0 = no growth, -100 = all killed)
- Settings: 10 µM unless noted
This is part of a sample that, as a whole, favours compounds with a hit. Of some 83,000 tested, about 20% had one in any assay.
Endpoint: growth (%)
Record the value in %, omitting the unit from your answer.

CCCC(O)Cn1ncc(C(=O)OCC)c1NC(=O)NCc1cccc(C(F)(F)F)c1 (centres undefined) :: 58.8
CCOC(=O)C/C(=N\Nc1cc(=O)[nH]c2ccc(OC)cc12)C(=O)OCC :: 87.2
CN(C)/C(N)=N/N=C(\c1ccccc1)c1ccccn1 :: 87.2
CCN(CC)CCn1c2ccc(OC)cc2c2sc3cc(O)ccc3c(=O)c21 :: 61.8
CCn1cc(Cc2cc(C(=O)Nc3cc4cc(OC)c(OC)cc4c(C)n3)ccc2Cl)cn1 :: 47.1
COc1ccc(-c2cc(-c3cccnc3)nc3sc4c(N)c(C(C)=O)c(-c5ccccc5)nc4c23)cc1OC :: 61.9
CC(C)c1ccc2c(c1)CC[C@H]1[C@](C)(C(=O)OCC#CCN3CCCC3)CCC[C@]21C :: 65.2
O=CN1N=C(c2cccc(Nc3ccnc4cc(Cl)ccc34)c2)CC1c1ccc(Cl)cc1 (centres undefined) :: 21.9

Note to self: growth recorded for N#Cc1ccc(/C=C/c2cn(-c3ccccc3)nc2-c2cccc([N+](=O)[O-])c2)cc1 was 74.6

Cited source for all entries: PubChem BioAssay (NCI)
